Test system: HeLa
Conditions: bulk resorufin, single well, 28.5 h, 10 µM, Bulk resorufin fluorescence
Strictly below 90% in % viability: Yes. Otherwise: No.

Qu. # check: % viability < 90% for "COc1ccc(C(=O)Nc2nnc(CC(=O)N/N=C/c3ccccc3OC)s2)cc1"
Ans. No

Qu. # check: % viability < 90% for "O=C(O)Cc1cc(C(=O)/C=C/c2c(Cl)cccc2Cl)ccc1O"
Ans. No

Qu. # check: % viability < 90% for COc1ccc2c(CN3CC4CCCN4C[C@H]3C)cn(C)c2c1 (stereo partly shown)
Ans. Yes

Qu. # check: % viability < 90% for CCOc1ccc(CN2CC3CCCN3C[C@H]2C)cc1 (stereo partly shown)
Ans. No

Qu. # check: % viability < 90% for "CN1CCc2[nH]c(=S)c(C#N)c(-c3ccccc3)c2C1"
Ans. Yes

Qu. # check: % viability < 90% for "COC(=O)c1ccc(-c2cc3ccccc3o2)nc1"
Ans. No
